B1: glmS ribozyme (parent)
chain: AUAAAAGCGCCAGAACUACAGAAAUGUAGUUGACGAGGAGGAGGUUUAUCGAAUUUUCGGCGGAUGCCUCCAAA

variants of: B1; experiment: self-cleavage kobs at 160 uM GlcN6P; higher = faster cleavage; RNA array; settings: with glucosamine-6-phosphate
This sample holds only a part of the variants without activity.
Endpoint Label: self-cleavage kobs at 160 uM GlcN6P

Guide cases for self-cleavage kobs at 160 uM GlcN6P, answers given:
What self-cleavage kobs at 160 uM GlcN6P value was documented for this variant, AUAAAAGCGCCAGAACUACAGAAAUGUAGUUGACGAGGAGGAGGUUUCUCGAAUUUUCGGCUGAUGCCUCCAAA [A48C G62U] ?
< 1e-05 s⁻¹

Record: AUAAAAGCGCUAGAACUACAGAAAUGUAGUUGACGAGGAGGAGGUAUAUCGAAUUUUCGGCGGAUGCCUCCAAA [C11U U46A]
< 1e-05 s⁻¹

Record: AUAAAAGCGCCAGAACUACAGAAAUGUAGUUGACGAGGAGGAGGUUUAUGGAAUUUUCGGCGGCUGCCUCCAAA [C50G A64C]
7.93e-05 s⁻¹

Record: AUAAAUGCGCAAGAACUACAGAAAUGUAGUUGACGAGGAGGAGGUUUAUCGAAUUUUCGGCGGAUGCCUCCAAA [A6U C11A]
< 1e-05 s⁻¹

Record: AUAAAAGCGCCAGAACUACAGAAAUGUAGUUGACGAGGAGGAGGUUUAUGGAAUUUUCGGCGAUUGCCUCCAAA [C50G G63A A64U]
0.000145 s⁻¹

Record: AUAAAAGCGCCAGAACUACAGAAAUGUAGUUGACGAGGGGGUGGUUUAUCGAAUUUUCGGCGGCUGCCUCCAAA [A39G A42U A64C]
< 1e-05 s⁻¹

Record: AUAAAAGCGCCAGAACUACAGAAAUGUAGUUAACGAGGAGGAGGUUUAUCGAAUUUUCGGCGGAUGCCUCCAAA [G32A]
0.000185 s⁻¹

Record: AUAAAGGGGCCAGAACUACAGAAAUGUAGUAUACGAGGAGGAGGUUUAUCGAAUUUUCGGCGGAUGCCUCCAAA [A6G C8G U31A G32U]
< 1e-05 s⁻¹

Record: AUAAAAGCGCCAGACCUACAGAAAUGUAGUUGACGAGGCGGAGGUUUAUCGAAUUUUCGGCGGAUGCCUCCAAA [A15C A39C]
0.000119 s⁻¹

Record: AUAAAACCGCCAGAACUACAGAAAUGUAGUCGACGAGGAGGAGGUUUAUCGAAUUUUCGGCGGAUGCCUCCAAA [G7C U31C]
< 1e-05 s⁻¹

Now, please, on to the next variant.
What self-cleavage kobs at 160 uM GlcN6P value was documented for this variant, AUAAAAACGCCAGAACUACAGAAAUGUAGUCGACGAGGAGGAGGUUUAUCGAAUUUUCGGCGGAUGCCUCCAAA [G7A U31C] ?
< 1e-05 s⁻¹
